molecular target: IL-2 receptor on IL-2 reporter HEK blue cells (Human IL-2 & IL-15 Reporter Cells, hkb-il2bg); assay: cell-based or functional assay
Sequence (P14784 whole entry, chain 1 of 2): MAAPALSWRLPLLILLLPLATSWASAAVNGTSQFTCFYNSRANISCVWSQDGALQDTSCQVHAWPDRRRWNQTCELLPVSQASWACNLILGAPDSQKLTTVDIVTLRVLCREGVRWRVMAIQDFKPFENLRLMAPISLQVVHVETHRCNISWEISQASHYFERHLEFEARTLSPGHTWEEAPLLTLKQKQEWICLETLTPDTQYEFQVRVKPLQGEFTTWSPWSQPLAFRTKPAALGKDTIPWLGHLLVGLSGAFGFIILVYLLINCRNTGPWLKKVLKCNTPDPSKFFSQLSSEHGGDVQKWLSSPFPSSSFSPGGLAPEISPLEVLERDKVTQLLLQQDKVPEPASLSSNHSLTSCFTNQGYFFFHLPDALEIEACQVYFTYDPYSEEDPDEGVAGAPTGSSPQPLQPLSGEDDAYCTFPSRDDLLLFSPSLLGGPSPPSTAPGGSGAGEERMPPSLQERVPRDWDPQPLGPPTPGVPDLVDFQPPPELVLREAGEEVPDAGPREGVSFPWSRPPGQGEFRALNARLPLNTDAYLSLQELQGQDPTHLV
Sequence (P31785 whole entry, chain 2 of 2, further chain): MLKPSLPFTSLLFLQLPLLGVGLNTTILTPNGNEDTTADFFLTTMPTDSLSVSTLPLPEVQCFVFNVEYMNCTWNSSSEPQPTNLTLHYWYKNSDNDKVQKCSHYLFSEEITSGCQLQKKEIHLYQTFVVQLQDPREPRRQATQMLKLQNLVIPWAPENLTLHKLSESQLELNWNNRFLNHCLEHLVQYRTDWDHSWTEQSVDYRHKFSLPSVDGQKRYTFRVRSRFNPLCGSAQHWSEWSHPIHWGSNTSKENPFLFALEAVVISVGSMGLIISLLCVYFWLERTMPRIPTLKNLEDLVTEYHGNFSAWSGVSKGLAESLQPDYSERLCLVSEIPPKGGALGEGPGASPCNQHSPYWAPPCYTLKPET
endpointLabel: EC-50 (IL-2 reporter HEK blue cells, SEAP, absorbance 630 nm) (pM)
Reply numerically in pM, unit not repeated.

What does the data say about its EC-50 (IL-2 reporter HEK blue cells, SEAP, absorbance 630 nm)? Entry: ORK2-008 (foldikine-2, two 8 aa InterLinkers GPPPPPPG) (ligand) LRPRDLISNINVIVLELKGSETTFMCEYADETATIVEFLNRWITFCQSIISTLTGPPPPPPGTKKTQLQLEHLLLDLQMILNGINNYKNPKLTRMLTFKFYMPKKATELKHLQCLEEELKPLEEVLNLAQSKNFHLRPRDLISNINVIVLELKGSETTFMCEYADETATIVEFLNRWITFCQSIISTLTGPPPPPPGTKKTQLQLEHLLLDLQMILNGINNYKNPKLTRMLTFKFYMPKKATELKHLQCLEEELKPLEEVLNLAQS 251
